System: NCI/ADR-RES ovarian
Assay overview: NCI-60 one-dose screen, 48 h
Test conditions: 10 µM unless noted
Compounds without any hit were thinned out: in the full panel of roughly 83,000, 20% have a hit. Active and inactive are the calls of the source. How the source made its calls: active means growth percent below 10; inactive means the rest.
Respond only with the outcome that fits, drawn from TRUE (active), FALSE (inactive)

Reference set (8 entries):
Compound: CC(C)(C)c1ccc(O)c(Br)c1
Assigned category: FALSE

Compound: O=C(CCl)N1c2ccccc2Sc2c1ccc1ccccc21
Assigned category: FALSE

Compound: CCOc1ccc2c(c1)/C(=C\C=C\C1CC(C)C3CC(OCC)CCC3N1CC)CC(C)N2CC (stereo unspecified)
Assigned category: FALSE

Compound: CN(C)c1ccc(/C=C/c2ccnc3ccccc23)cc1
Assigned category: FALSE

Compound: O=C1c2ccccc2Cc2cccc(Cl)c21
Assigned category: FALSE

Compound: O=[N+]([O-])c1ccc(N2CCN(Cc3ccccc3)CC2)c2c1no[n+]2[O-]
Assigned category: FALSE

Compound: CN(Cc1ccccc1)c1ccc(SC#N)cc1
Assigned category: FALSE

Compound: Nc1ccc(C(=O)/C=C/c2ccccc2)cc1
Assigned category: FALSE

In this assay, the call recorded for NC1=C(Br)C(=O)c2ncccc2C1=O was what?
TRUE

Which result was noted for this compound in the test: CCc1oc2ccccc2c1C(=O)c1cc(Br)c(O)c(Br)c1
FALSE

Which outcome was entered for the compound O=[N+]([O-])CC(O)c1ccccc1 (stereo unspecified) in this test?
FALSE

So what was the verdict on N#CC(=C1SCS1)[N+](=O)[O-] in this test?
FALSE

Check the results log: what was the call for Nc1ccc(Oc2ccccc2)c(Cl)c1 ?
FALSE

// return assay outcome for OC(c1cc(C23CC4CC(CC(C4)C2)C3)nc2c(Cl)cc(Cl)cc12)C1CCCCN1 (stereo unspecified)
TRUE

Recorded call for CCSc1nc2ccccc2o1 ?
FALSE

Recorded call for O=[N+]([O-])c1ccc(Oc2ccccc2Cl)c([N+](=O)[O-])c1 ?
FALSE

Identify the outcome logged in this assay for the compound shown: CN=C(N)N/N=C(\C)c1ccc2c(c1)Cc1ccccc1-2
TRUE

Test call for this compound, please: c1ccc(C2NCCNC2c2ccccc2)cc1 (stereo unspecified)
FALSE

Assay outcome for O=C/C=C/c1ccc([N+](=O)[O-])cc1 : what was it?
FALSE

Dear all, I need the recorded test outcome for NNc1ccc(Cl)cc1Cl , thank you.
FALSE
